tested on: Penicillinresistant S. aureus; assay: MIC, two-fold serial agar dilution in Mueller-Hinton agar, group (G+)-Ib; assay type: cell-based; settings: Staphylococcus aureus, penicillin-resistant S. aureus, 5 strains, read-out: Geometric Mean of MIC, (G+)-Ib
List of MIC values.

# COMPOUND, MIC [µg/mL]
data = [
    ("CO/N=C(\\C(=O)NC1C(=O)N2C(C(=O)[O-])=C(/C=C/C[n+]3ccc(N)cc3)CS[C@H]12)c1csc(N)n1 (stereo partly drawn)", 0.34),
    ("CC(C)(O/N=C(\\C(=O)NC1C(=O)N2C(C(=O)[O-])=C(/C=C/C[N+]3(C)CCCC3)CS[C@H]12)c1csc(N)n1)C(=O)O (stereo partly drawn)", 4.1),
    ("C[N+]1(C/C=C/C2=C(C(=O)[O-])N3C(=O)C(NC(=O)/C(=N\\OC4(C(=O)O)CCC4)c4csc(N)n4)[C@H]3SC2)CC=CC1 (stereo partly drawn)", 4),
    ("Nc1ccc[n+](C/C=C/C2=C(C(=O)[O-])N3C(=O)C(NC(=O)/C(=N\\OC4(C(=O)O)CCC4)c4csc(N)n4)[C@H]3SC2)c1 (stereo partly drawn)", 3.1),
    ("CO/N=C(\\C(=O)NC1C(=O)N2C(C(=O)[O-])=C(/C=C/C[n+]3cccc(N)c3)CS[C@H]12)c1csc(N)n1 (stereo partly drawn)", 0.3),
    ("CO/N=C(\\C(=O)NC1C(=O)N2C(C(=O)[O-])=C(/C=C/C[n+]3ccc(C(N)=O)cc3)CS[C@H]12)c1csc(N)n1 (stereo partly drawn)", 0.61),
    ("Nc1nc(/C(=N/OC2(C(=O)O)CCC2)C(=O)NC2C(=O)N3C(C(=O)[O-])=C(/C=C/C[n+]4ccccc4)CS[C@H]23)cs1 (stereo partly drawn)", 4.7),
    ("CO/N=C(\\C(=O)NC1C(=O)N2C(C(=O)[O-])=C(/C=C/C[N+]3(C)CCCC3)CS[C@H]12)c1csc(N)n1 (stereo partly drawn)", 0.59),
    ("CSc1scc[n+]1C/C=C/C1=C(C(=O)[O-])N2C(=O)C(NC(=O)/C(=N\\OC3(C(=O)O)CCC3)c3csc(N)n3)[C@H]2SC1 (stereo partly drawn)", 2.8),
    ("CO/N=C(\\C(=O)NC1C(=O)N2C(C(=O)[O-])=C(/C=C/C[n+]3ccsc3C)CS[C@H]12)c1csc(N)n1 (stereo partly drawn)", 0.3),
    ("CSc1scc[n+]1C/C=C/C1=C(C(=O)[O-])N2C(=O)C(NC(=O)/C(=N\\OC(C)(C)C(=O)O)c3csc(N)n3)[C@H]2SC1 (stereo partly drawn)", 5.4),
    ("CO/N=C(\\C(=O)NC1C(=O)N2C(C(=O)[O-])=C(/C=C/C[N+](C)(C)C)CS[C@H]12)c1csc(N)n1 (stereo partly drawn)", 0.59),
]

* * *

tested on: Cephalothinresistant E. coli and Kl. pneumoniae; assay: MIC, two-fold serial agar dilution in Mueller-Hinton agar, group (G-)-Ib; assay type: cell-based, E. coli (3 strains) and Kl. pneumoniae (3 strains); details: read-out: Geometric Mean of MIC, (G-)-Ib
List of MIC values.

# MOLECULE, MEASUREMENT UNITS, MIC
records = [
    ("CO/N=C(\\C(=O)NC1C(=O)N2C(C(=O)[O-])=C(/C=C/C[n+]3ccsc3SC)CS[C@H]12)c1csc(N)n1 (some centres unmarked) [Compound I-1G]", "µg/mL", 0.074),
    ("CSc1scc[n+]1C/C=C/C1=C(C(=O)[O-])N2C(=O)C(NC(=O)/C(=N\\OC(C)(C)C(=O)O)c3csc(N)n3)[C@H]2SC1 (some centres unmarked) [Compound I-4G]", "µg/mL", 0.22),
    ("C[N+]1(C/C=C/C2=C(C(=O)[O-])N3C(=O)C(NC(=O)/C(=N\\OC4(C(=O)O)CCC4)c4csc(N)n4)[C@H]3SC2)CC=CC1 (some centres unmarked) [Compound I-5F]", "µg/mL", 0.22),
    ("Nc1cc[n+](C/C=C/C2=C(C(=O)[O-])N3C(=O)C(NC(=O)/C(=N\\OC4(C(=O)O)CCC4)c4csc(N)n4)C3SC2)cc1 (centres unmarked) [Compound I-5I]", "µg/mL", 0.2),
    ("CC(C)(O/N=C(\\C(=O)NC1C(=O)N2C(C(=O)[O-])=C(/C=C/C[n+]3ccccc3)CS[C@H]12)c1csc(N)n1)C(=O)O (some centres unmarked) [Compound I-4B]", "µg/mL", 0.37),
    ("CO/N=C(\\C(=O)NC1C(=O)N2C(C(=O)[O-])=C(/C=C/C[N+]3(C)CC=CC3)CS[C@H]12)c1csc(N)n1 (some centres unmarked) [Compound I-1F]", "µg/mL", 0.074),
    ("CO/N=C(\\C(=O)NC1C(=O)N2C(C(=O)[O-])=C(/C=C/C[N+]3(C)CCCC3)CS[C@H]12)c1csc(N)n1 (some centres unmarked) [Compound I-1A]", "µg/mL", 0.11),
    ("CO/N=C(\\C(=O)NC1C(=O)N2C(C(=O)[O-])=C(/C=C/C[n+]3ccc(C(N)=O)cc3)CS[C@H]12)c1csc(N)n1 (some centres unmarked) [Compound I-1J]", "µg/mL", 0.11),
    ("CO/N=C(\\C(=O)NC1C(=O)N2C(C(=O)[O-])=C(/C=C/C[n+]3ccc(N)cc3)CS[C@H]12)c1csc(N)n1 (some centres unmarked) [Compound I-1I]", "µg/mL", 0.1),
    ("Nc1nc(/C(=N/OC2(C(=O)O)CCC2)C(=O)NC2C(=O)N3C(C(=O)[O-])=C(/C=C/C[n+]4ccc5sc(N)nc5c4)CS[C@H]23)cs1 (some centres unmarked) [Compound I-5C]", "µg/mL", 0.15),
    ("CO/N=C(\\C(=O)NC1C(=O)N2C(C(=O)[O-])=C(/C=C/C[n+]3ccccc3)CS[C@H]12)c1csc(N)n1 (some centres unmarked) [Compound I-1B]", "µg/mL", 0.05),
    ("Nc1nc(/C(=N/OC2(C(=O)O)CCC2)C(=O)NC2C(=O)N3C(C(=O)[O-])=C(/C=C/C[n+]4ccccc4)CS[C@H]23)cs1 (some centres unmarked) [Compound I-5B]", "µg/mL", 0.23),
    ("CC(C)(O/N=C(\\C(=O)NC1C(=O)N2C(C(=O)[O-])=C(/C=C/C[N+]3(C)CCCC3)CS[C@H]12)c1csc(N)n1)C(=O)O (some centres unmarked) [Compound I-4A]", "µg/mL", 0.2),
    ("CO/N=C(\\C(=O)NC1C(=O)N2C(C(=O)[O-])=C(/C=C/C[n+]3ccsc3C)CS[C@H]12)c1csc(N)n1 (some centres unmarked) [Compound I-1H]", "µg/mL", 0.05),
    ("C[N+]1(C/C=C/C2=C(C(=O)[O-])N3C(=O)C(NC(=O)/C(=N\\OC4(C(=O)O)CCC4)c4csc(N)n4)C3SC2)CCCC1 (centres unmarked) [Compound I-5A]", "µg/mL", 0.23),
    ("CO/N=C(\\C(=O)NC1C(=O)N2C(C(=O)[O-])=C(/C=C/C[n+]3cccc(N)c3)CS[C@H]12)c1csc(N)n1 (some centres unmarked) [Compound I-1E]", "µg/mL", 0.05),
    ("CO/N=C(\\C(=O)NC1C(=O)N2C(C(=O)[O-])=C(/C=C/C[N+](C)(C)C)CS[C@H]12)c1csc(N)n1 (some centres unmarked) [Compound I-1D]", "µg/mL", 0.074),
]

* * *

system: Ps. aeruginosa; assay: MIC, two-fold serial agar dilution in Mueller-Hinton agar, group (G-)-III; type: cell-based; details: Pseudomonas aeruginosa, 7 strains, read-out: Geometric Mean of MIC, (G-)-III
Cut-off 5 µg/mL on MIC: below means YES, at or above means NO.

# COMPOUND, TESTED ON, CLASS NAME
data = [
    ("Nc1ccc[n+](C/C=C/C2=C(C(=O)[O-])N3C(=O)C(NC(=O)/C(=N\\OC4(C(=O)O)CCC4)c4csc(N)n4)[C@H]3SC2)c1 (stereo partly drawn)", "Ps. aeruginosa", "YES"),
    ("C[N+]1(C/C=C/C2=C(C(=O)[O-])N3C(=O)C(NC(=O)/C(=N\\OC4(C(=O)O)CCC4)c4csc(N)n4)[C@H]3SC2)CC=CC1 (stereo partly drawn)", "Ps. aeruginosa", "YES"),
    ("CO/N=C(\\C(=O)NC1C(=O)N2C(C(=O)[O-])=C(/C=C/C[n+]3ccsc3SC)CS[C@H]12)c1csc(N)n1 (stereo partly drawn)", "Ps. aeruginosa", "NO"),
    ("Nc1cc[n+](C/C=C/C2=C(C(=O)[O-])N3C(=O)C(NC(=O)/C(=N\\OC4(C(=O)O)CCC4)c4csc(N)n4)C3SC2)cc1 (stereo not drawn)", "Ps. aeruginosa", "YES"),
    ("Nc1nc(/C(=N/OC2(C(=O)O)CCC2)C(=O)NC2C(=O)N3C(C(=O)[O-])=C(/C=C/C[n+]4ccc5sc(N)nc5c4)CS[C@H]23)cs1 (stereo partly drawn)", "Ps. aeruginosa", "YES"),
    ("C[N+]1(C/C=C/C2=C(C(=O)[O-])N3C(=O)C(NC(=O)/C(=N\\OC4(C(=O)O)CCC4)c4csc(N)n4)C3SC2)CCCC1 (stereo not drawn)", "Ps. aeruginosa", "YES"),
    ("CSc1scc[n+]1C/C=C/C1=C(C(=O)[O-])N2C(=O)C(NC(=O)/C(=N\\OC(C)(C)C(=O)O)c3csc(N)n3)[C@H]2SC1 (stereo partly drawn)", "Ps. aeruginosa", "YES"),
    ("CO/N=C(\\C(=O)NC1C(=O)N2C(C(=O)[O-])=C(/C=C/C[n+]3ccsc3C)CS[C@H]12)c1csc(N)n1 (stereo partly drawn)", "Ps. aeruginosa", "NO"),
    ("CO/N=C(\\C(=O)NC1C(=O)N2C(C(=O)[O-])=C(/C=C/C[N+](C)(C)C)CS[C@H]12)c1csc(N)n1 (stereo partly drawn)", "Ps. aeruginosa", "YES"),
    ("CO/N=C(\\C(=O)NC1C(=O)N2C(C(=O)[O-])=C(/C=C/C[n+]3ccc(C(N)=O)cc3)CS[C@H]12)c1csc(N)n1 (stereo partly drawn)", "Ps. aeruginosa", "NO"),
    ("CO/N=C(\\C(=O)NC1C(=O)N2C(C(=O)[O-])=C(/C=C/C[N+]3(C)CC=CC3)CS[C@H]12)c1csc(N)n1 (stereo partly drawn)", "Ps. aeruginosa", "YES"),
]

FYI, the data here is from patent US4486586A.
